The reported numbers originate from patent US20150105252A1.

Kindly state Lambsquarters plant response rating for each of the entries shown.
System: lambsquarters
Assay: Test C postemergence
Type: in vivo, Chenopodium album
Conditions: postemergence, 62 g ai/ha; scale 0 to 100
Excerpt: […]
Give bare numbers.

Field: example entries. Status: answers known.
Incoming: For CCCc1cc(C(=O)NOCC)nn1Cc1ccnc(C(F)(F)F)c1 , what is its reported Lambsquarters plant response rating?
Outgoing: 35

Incoming: For CCOc1cc(C(=O)NC(C)C)nn1Cc1ccnc(C(F)(F)F)c1 , what is its reported Lambsquarters plant response rating?
Outgoing: 75

Incoming: For CCCc1cc(C(=O)NCC(F)(F)F)nn1Cc1cc(C(F)(F)F)nn1C , what is its reported Lambsquarters plant response rating?
Outgoing: 40

Incoming: For CCCNC(=O)c1cc(CCC)n(Cc2cc(C(F)(F)F)nn2C)n1 , what is its reported Lambsquarters plant response rating?
Outgoing: 50

Okay, here is my list. What is Lambsquarters plant response rating for each of these?
1. CCCc1cc(C(=O)NCC)nn1Cc1cc(C(F)(F)F)nn1C
2. CCCc1cc(C(=O)NCC)nn1Cc1ccnc(C(F)(F)F)c1
3. CCNC(=O)c1cc(CC)n(Cc2ccnc(C(F)(F)F)c2)n1

Outgoing:
1. 100
2. 80
3. 65
